System: XF498
Assay Procedure: NCI tumour cell line growth inhibition, 48 h
The source made the active and inactive calls. No stated cut-off is given here; in the data, active = GI50 up to about 1.1 µM and inactive = higher.
Readout: GI50

CC(=O)Nc1ccc(/C=C(\NC(=O)c2ccccc2)c2nc3ccc4c(c3[nH]2)C(=O)c2ccccc2C4=O)cc1 = 84.1 µM (inactive)
Cc1ccc(S(=O)(=O)N(C=O)N=C2CCN(Cc3ccccc3)CC2)cc1 = > 100 µM (inactive)
COC(=O)CCC(=O)N1C/C(=C\c2ccccc2)C(=O)/C(=C/c2ccccc2)C1 = 5.87 µM (inactive)
CCc1ccccc1NC(=O)C(=O)C1C(=O)N(c2ccccc2)N=C1N (stereo not given) = > 100 µM (inactive)
Cc1cc(Cl)ccc1N1C(=O)C(=O)C(c2nc3ccccc3s2)C(=O)C1=O = > 100 µM (inactive)

* * *

Tested on: A549
Assay Procedure: NCI tumour cell line growth inhibition, 48 h
Active and inactive are the calls of the source. Cut-off read from the data, not from the text of the source: active = GI50 up to about 1.1 µM and inactive = higher.
Outcomes: active, inactive

CSc1nc(Nc2ccccc2Cl)c2c(N)nn(C)c2n1 = inactive
O=C1OCC(c2ccc(Cl)cc2)=C1Cl = inactive
O=C(c1ccco1)N1CCN(C(=O)c2ccco2)C1=S = inactive
COc1c(-c2ccc3c(c2)OCO3)oc2cc3c(c(OC)c2c1=O)OCO3 [MELITERNATIN] = inactive
CC(=O)OC12c3ccccc3C(c3ccccc31)C1C(=O)N(c3ccccc3O)C(=O)C12 (configuration not stated) = inactive
CCOC(=O)CCC(NC(=O)c1ccc(Nc2nc3ccccc3nc2-c2cccs2)cc1)C(=O)OCC (configuration not stated) = inactive
CC(=O)OC(/C=C/c1ccccc1)=C(OC(C)C)/C1=C(\c2ccccc2)SCCCSC1=O = inactive
Cc1ccccc1NC(=O)C(=O)CC(=O)c1c(C)[n+]([O-])c2ccccc2[n+]1[O-] = inactive
Cc1ccc(C#CS(=O)(=O)C(F)(F)F)cc1 = inactive
CCOC(=O)[C@@H]1OC(c2ccccc2)O[C@H]1C(=O)OCC = inactive
Cc1nc2cccc([N+](=O)[O-])c2n1CCCN(C)C = inactive
O=C(c1nsc(Cl)c1Cl)N1CCCCC1 = inactive
CN1C2(c3ccccc3)C(C(=O)c3ccccc3)=C(C(=O)c3ccccc3)C1(c1ccccc1)c1c(-c3ccccc3)sc(-c3ccccc3)c12 = inactive
CC(=O)Nc1ccc(/C=C2/NC(=S)N(/C=C3\C(=O)Oc4ccccc4C3=O)C2=O)cc1 = inactive
CN(C)Cc1[nH]c2ccccc2c1C(=O)c1ccccc1 = inactive
CC(C)C1=CC23CCC4C(C)(C(=O)O)CCCC4(C)C2CC1C1C(=O)N(c2ccccc2N2C(=O)C4C5CC6C7(C)CCCC(C)(C(=O)O)C7CCC6(C=C5C(C)C)C4C2=O)C(=O)C13 (configuration not stated) = inactive
O=c1c2cccnc2[nH]c2ccc3scnc3c12 = inactive
CCC1OC2C(CC=C(C)C)=C3OC(C)(O)C(C)(CC)C(OC(C)=O)C3=C3OC(=O)C=C1C32 (configuration not stated) = inactive
O=S(=O)(N/C(=N\O)Nc1ccc(Cl)cc1)c1cc(C(F)(F)F)cc(C(F)(F)F)c1 = inactive
COc1cc2c(oc(=O)c3cc(C)cc(OC)c32)c2c(C3OC(C)C(O)C(C)(O)C3O)ccc(O)c12 (configuration not stated) = active
O=c1ccn(C2OC(CO)C(O)C2F)c(=O)n1Cc1ccccc1 (configuration not stated) = inactive
CN(C)/C=N\c1nncc2[nH]cnc12 = inactive
CC(=O)/C(=C\c1ccccc1O)C(=O)Nc1ccccc1C = inactive
COC(=O)C(/C(=N/N)C(=O)Nc1cc(Cl)c(Cl)cc1Cl)c1nc2ccc(Cl)cc2nc1O (configuration not stated) = inactive
O=P1(N(CCCl)CCCl)NCCCO1 (configuration not stated) [CYCLOPHOSPHAMIDE ANHYDROUS] = inactive
CCCc1cc(=O)oc2c3c(c4c(c12)OC(C)(C)C=C4)O[C@@H](C)[C@H](C)C3=O = inactive
COc1ccccc1CCc1cc(OC)c(OC)c(OC)c1 = inactive
CN(C)CCCOc1nc2c(c(=O)n(C)c(=O)n2C)n1C.SC1=NC=NC2=NC=NC12 = inactive
Cc1ccc(C(=O)Nc2ccc(CP(=O)(O)O)cc2CP(=O)(O)O)cc1NC(=O)c1cccc(N)c1 = inactive
COC(=O)C12OCC34C(CC5C(C)C6=CC(=O)OC6=CC5(C)C3C(O)C1O)OC(=O)C(OC(C)=O)C24 (configuration not stated) = inactive
C/C(=N\Nc1nc2ccccc2s1)c1ccncn1 = inactive
O=C1C(Cl)=C(OCCCCl)C(=O)c2c(O)ccc(O)c21 = inactive
N#CCSc1c(-c2ccccc2)c(=O)n(-c2ccccc2)c(=S)n1-c1ccccc1 = inactive
COc1ccc(Cl)cc1NC(=O)c1cccc([N+](=O)[O-])c1O = inactive
Cn1nc(-c2ccccc2NC(=O)C(F)(F)F)c(=O)n(C)c1=S = inactive
OC1C2CCC1C1C3C=CC(C3)C21 (configuration not stated) = inactive
O=C1C=C(Sc2ccccc2)c2nccc3c2c1nc1ccccc13 = inactive
N#CCCC(CCC#N)(CCC#N)NO = inactive
Cc1ccc(S(=O)(=O)N(C=O)N=C2CCN(Cc3ccccc3)CC2)cc1 = inactive
C=CCC12CC(=O)C=C1CCC1(C2)OCCO1 (configuration not stated) = inactive
Cn1c(=O)c(C(=O)NC(=O)OCc2ccccc2)cn(CCSCCOC(=O)NCCCCCCNC(=O)OCCSCCn2cc(C(=O)NC(=O)OCc3ccccc3)c(=O)n(C)c2=O)c1=O = inactive
CN(C)CCOc1ccc2c(c1)C/C(=C/c1ncc([N+](=O)[O-])n1C)C2=O = inactive

* * *

System: LOX IMVI
Assay Procedure: NCI tumour cell line growth inhibition, 48 h
Active and inactive are the calls of the source. Cut-off read from the data, not from the text of the source: active = GI50 up to about 1.1 µM and inactive = higher.
Outcomes: label 1 (active), label 0 (inactive)

C/C=C/COc1cc(NC(=S)OC(C)C)ccc1Cl.C/C=C\COc1cc(NC(=S)OC(C)C)ccc1Cl = label 0
CC(=O)c1c(C(F)(F)F)[n+]([O-])c2cc(Cl)c(Cl)cc2[n+]1[O-] = label 1
CC(=O)Nc1ccc(/C=C(\NC(=O)c2ccccc2)c2nc3ccc4c(c3[nH]2)C(=O)c2ccccc2C4=O)cc1 = label 0
CC(=O)NC1=CC(=O)c2cc(C)cc(O)c2C1=O = label 0
O/N=C1\CSc2ccccc2C1 = label 0

* * *

Tested on: HCT-116
Assay Procedure: NCI tumour cell line growth inhibition, 48 h
The source made the active and inactive calls. Rule as the data show it: active = GI50 up to about 1.1 µM and inactive = higher. Where a SMILES comes first, the peptide text is derived from it. The star is where a group is joined. Cbz = O=C(OCc1ccccc1)*
Outcomes: Yes = active, No = inactive

CCc1[nH]nc(C(N)=O)c1/N=N/N(C)C = No
CN1C2(c3ccccc3)C(C(=O)c3ccccc3)=C(C(=O)c3ccccc3)C1(c1ccccc1)c1c(-c3ccccc3)sc(-c3ccccc3)c12 = No
C[C@]12CC[C@@H]3c4ccc(OC(=O)c5ccccc5)cc4CC[C@H]3[C@@H]1CCC2OC(=O)c1cccc2c(=O)c3ccccc3[nH]c12 (some centres undefined) = No
CCCc1cc(=O)oc2c3c(c4c(c12)OC(C)(C)C=C4)O[C@@H](C)[C@H](C)C3=O = No
Cc1nnc2n1N=C(c1ccccc1)C(c1ccccc1)S2 (centres undefined) = No
c1ccc2c(c1)ccc1cc3cc(NCCCCNc4ccc5nc6c(ccc7ccccc76)cc5c4)ccc3nc12 = Yes
CCOC(=O)CCC(NC(=O)CNC(=O)CNC(=O)C(CCC(=O)OCC)NC(=O)C(CCC(=O)OCC)NC(=O)C(CCC(=O)OCC)NC(=O)OCc1ccccc1)C(=O)NC(CCC(=O)OCC)C(=O)NC(CCC(=O)OCC)C(=O)OCC (centres undefined) (Cbz-E(OEt)E(OEt)E(OEt)GGE(OEt)E(OEt)E(OEt)-OEt; configuration not given here) = No
Cc1cccc2nc3cc(O)cc(O)c3c(O)c12 = No
CC(=O)NC1=CC(=O)c2cc(C)cc(O)c2C1=O = No
COc1ccc(C2C3=C(COC3=O)Oc3cc4c(cc32)OCO4)c(OC)c1 (centres undefined) = No
CC(C)CNc1nc(N)nc(O)c1NC=O = No
COC(=O)c1c(OC(C)=O)ccc2c1c1c(OC(C)=O)c3ccccc3c(OC(C)=O)c1n2C = No
CCCCN(C(=O)c1ccccc1)C1CCC(=O)c2[nH]c3ccccc3c21 (centres undefined) = No
CC1=NN(C(=O)c2ccccc2O)C(=O)/C1=C/c1c(O)ccc2ccccc12 = Yes
CCC1(O)CC(OC2CC(N(C)C)C(OC3CC(O)C(OC4OC(C)C(=O)C=C4N)C(C)O3)C(C)O2)c2c(O)c3c(c(O)c2C1C(=O)OC)C(=O)c1cccc(O)c1C3=O (centres undefined) = Yes
O=C1C(C(c2ccccc2)N2CCOCC2)=C(O)C(c2ccccc2)N1c1ccccc1 (centres undefined) = No
Cc1ccc(C#CS(=O)(=O)C(F)(F)F)cc1 = No
O=C1c2ccccc2C(=O)N1CCN(CCN1C(=O)c2ccccc2C1=O)Cc1ccccc1 = No
CN(C)CCCOc1nc2c(c(=O)n(C)c(=O)n2C)n1C.SC1=NC=NC2=NC=NC12 = No
